System: Escherichia coli TOP10;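 note: peptides expressed intracellularly from a pBAD plasmid library in pooled LB shake-flask culture, induced with 0.3% L-arabinose, DNA abundance read by NGS, three biological replicates, DESeq2 with apeglm shrinkage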
Test Description: shrunken log2 fold change of peptide-encoding DNA abundance (4.5 h post-induction vs induction); higher = less antimicrobial activity (less host growth inhibition)
Condition: time post-induction: 4.5 h; library: site-saturation at positions 5, 18, 19, 20
# shrunken log2 fold change values compiled below
Kindly provide the number alone.

A selection of reference data follows.
{"Residue String": "RRIRWRPPRLPRPRPRPLWTPRP", "shrunken log2 fold change": 0.0621}
{"Residue String": "RRIRNRPPRLPRPRPRPCSHPRP", "shrunken log2 fold change": -0.331}
{"Residue String": "RRIRWRPPRLPRPRPRPNISPRP", "shrunken log2 fold change": -0.279}
{"Residue String": "RRIRVRPPRLPRPRPRPSNYPRP", "shrunken log2 fold change": -0.342}
{"Residue String": "RRIRYRPPRLPRPRPRPPEDPRP", "shrunken log2 fold change": -0.145}
{"Residue String": "RRIRGRPPRLPRPRPRPNPSPRP", "shrunken log2 fold change": 0.294}

RRIRFRPPRLPRPRPRPCHFPRP has a reported shrunken log2 fold change of -0.00959

RRIRSRPPRLPRPRPRPLFPPRP has a reported shrunken log2 fold change of -0.00148

RRIRPRPPRLPRPRPRPWFRPRP has a reported shrunken log2 fold change of -0.0017

RRIRDRPPRLPRPRPRPQFKPRP has a reported shrunken log2 fold change of -0.0159

RRIRFRPPRLPRPRPRPQEGPRP has a reported shrunken log2 fold change of -0.00638
